Experiment: yeast display, Sf9 membrane polyspecificity reagent, FACS + sequencing; frameworks hold sequencing errors
Property label: polyreactivity (PSR sort gate)

- Biopolymer sequence: "QVQLVESGGGLDQAGGSLRLSCAASGRIFNVYAMGWYRQAPGKERELVASITSAGSTYYADSVKGRFTISRDNAKNTVYIKMNSLKPEDTAVYYCAADCYSVYYSTYDSWGQGTQVTVSS"
  Property label: "polyreactivity (PSR sort gate)"
  Value reported: "low polyreactivity"
- Biopolymer sequence: "QVQLVESGGGLVQAGGSLRLSCAASGYIIDVNTMGWYRPAPGKDRELVAAITSGGTTYYADSVKGRFTISRDNAKNTVYLQMNSLKPEDTAAYYCAALWSRRRSRPSFDYWGQGTQVTVSS"
  Property label: "polyreactivity (PSR sort gate)"
  Value reported: "high polyreactivity"
- Biopolymer sequence: "QVQLVESGGGLVQAGGSLRLSCAASGLIFPIYTMGWYRQAPGKERELVAAISSRGGSTYYADSVKGRFTISRDNAKNTVYLQMNSLKPEDTAVYYCAAQFRFSGMGYWGQGTQVTVSS"
  Property label: "polyreactivity (PSR sort gate)"
  Value reported: "high polyreactivity"
- Biopolymer sequence: "QVQLQECGGGLVQAGGSLRLSCAASGNIFDADIMGWYSQAPGKERELVDSVTDGGSTNYADSVKGRFTISRDNAKNTVYLQMNSLKPEHTAVYYCAAIVYPDILTYFDYDYDYFYWGQGTQVTVGS"
  Property label: "polyreactivity (PSR sort gate)"
  Value reported: "low polyreactivity"

Lab note: next sequence to report on.
**Query** // lookup polyreactivity (PSR sort gate) for QVQLVESGGGLVQAGGSLRLSCAASGITFPNYTMGWYRQAPWKERELLAAISYNGGGTYYADSVNGRFTISRYKAKNTVYVQKNSLKPEDTAVYYCAALGLYGDYLRYDYWGQGTQVSVSS
**Result** high polyreactivity

* * *

Assay: yeast display, Sf9 membrane polyspecificity reagent, FACS + sequencing; frameworks hold sequencing errors

- Biopolymer sequence: "QVHLVESGGGLVQAGGSLRLSCAASGFTFDAYAMGWYRQAPGKERELVAAITRRSGSTYYADSVKGRFTISRDNAKNTVYLQMNSLKPEDTAVYYCAAVSVHRLGSTFGYWGQGTQVTVSS"
  polyreactivity (PSR sort gate): "high polyreactivity"
- Biopolymer sequence: "QVQLVESGVGLVQAGGILRLSCAASGRIFNGYALGWYRQAPGKERELVAVITWNGGSTYYADSVKGRFTISRDNAKNTVYLQMNSLKPEETAVYYCADRRTGYYGTRDYWGQVTQVTVSS"
  polyreactivity (PSR sort gate): "high polyreactivity"
- Biopolymer sequence: "QVQLVESGGGLVQAGGSLRLSCADSGSTFWYNAMGWYRQAPGKERELVAAITWSASRTYYADSVKGRFTISRDNAKNTVYLQMNSLKPEDTAVYYCAKASPRYKYFTGDYWGQGTQVTVSS"
  polyreactivity (PSR sort gate): "high polyreactivity"

* * *

Experiment: yeast display, Sf9 membrane polyspecificity reagent, FACS + sequencing; frameworks hold sequencing errors
Property label: polyreactivity (PSR sort gate)

// solved cases for polyreactivity (PSR sort gate) follow
- Biopolymer sequence: "QVQLVESGGGLVQAGGSLRLSCAASGFTFTWYAMGWYRQAPGKQRELVASISRSGGSTYYAESVKGRFTISRDNAKNTVYLQMNSRKPEDTAVYYCAAVSRTRSYDYWGQGTQVTVSS"
  Value reported: "high polyreactivity"
- Biopolymer sequence: "QVQLVESGGGLVQAGGSLRLSCAASGNTFVSNAMGWYRPAPGKERELVAAISSTGNTNYADSVKGRFTISRDNAKNTDYLQMNSLKPEDTAVYYCAKGDKRAYVAYKEGSWGQGTQVTVSS"
  Value reported: "low polyreactivity"
- Biopolymer sequence: "QVQLVESGGGLVQAGGSLRLSCAASVSISLYYAMGWYRQAPGKERELVAAISTRGGSTYYADSVKGRFTISRDNAKNTVYLQMNSLKPEDTAVYYCAARTRLTADPRYGISSKMYYWGQGTQVTVSS"
  Value reported: "high polyreactivity"
- Biopolymer sequence: "QVQLVESGGGLVQAGGSLRLSCAASGRIFTRNTMGWYRQAPGKERELVAAISGRGGSTYYADSVKGRFTISRDNAKNTVYLQMNSLKPEDTAVYYCAADGVYRGGYDYWGQVTQVTVSS"
  Value reported: "high polyreactivity"

Lab note: next sequence to report on.
**Query** // lookup polyreactivity (PSR sort gate) for QVQLVESGGGLVQAGGSLRLSCAASGFIIYSYAMGWYRQAPGKERELVAGITSDGRTYYADSVKGRFTISRDNAKNTVYLQMNSLKPEDTAVYYCAARYYLFYRVSPYYYWGQGTQVTVSS
**Result** low polyreactivity

* * *

Assay: yeast display, Sf9 membrane polyspecificity reagent, FACS + sequencing; frameworks hold sequencing errors
Property label: polyreactivity (PSR sort gate)

- Biopolymer sequence: "QVQLVESGGGLVQAGGSLRLSCAASGIIFDVYAMGWYIQAPGKERELVAAISSGGSTYYADSVKGRFTISRDNAKNTVYLQMNSLKPEDTAVYYCATAQSVIYRYEYWGQGTQVTVSS"
  Value reported: "low polyreactivity"
- Biopolymer sequence: "QVQLVESGGGLVQAGGSLRLSCAASGSIFAFNGMGGYRPAPGKERELVAGITISDSTNYADSVKGRFTISRDNAKNTVSLQMNSLKPEVTAVYYCNADYEQYVYWYWFIKYDYWGQVTQVTVSS"
  Value reported: "low polyreactivity"

* * *

Test: yeast display, Sf9 membrane polyspecificity reagent, FACS + sequencing; frameworks hold sequencing errors
Property label: polyreactivity (PSR sort gate)

// solved cases for polyreactivity (PSR sort gate) follow
- Biopolymer sequence: "QVQLVESGGGLVQAGGSLRISCAASGSIFYNYAMGWYRQAPGKERELVAAINRSGGITFYADSVKGRFTISRDNAKNTVYLQMNSLKPEDTAVYYCAADRSFGHHYWYTGKRYDYWGQGTQVTVSS"
  Property label: "polyreactivity (PSR sort gate)"
  Value reported: "low polyreactivity"
- Biopolymer sequence: "QVQLVESGGGLVQAGGSLRLSCAPSGSIFPSNVMGWYRQAPGKERELVAAISNTGSTNYADSVKGRFTISRDNAKNTVYLQMNSLKPEDTAVYYCNGDASYGFWSLLDYDYWGQATQVTVSS"
  Property label: "polyreactivity (PSR sort gate)"
  Value reported: "low polyreactivity"
- Biopolymer sequence: "QVQLVESAGGLVQAGGSLRLSCAASGNIFSYYAMGWYRQAPGKERELVAAISRRGTNTYYADSVKGRFTISRDNAKNTVYLQMKSLKPEDTAVYYCARYGPYQSSYHYDYWGQGTQVTVSS"
  Property label: "polyreactivity (PSR sort gate)"
  Value reported: "high polyreactivity"
- Biopolymer sequence: "QVQLVESGGGLVQAGGSLRLSCAASGSIFGQNAMGWYRQAPGKEMELVAAIRVSGGSTYYADSVKGRFTNSRDNAKNTVYLQKNSLKPEDTAVYYCNARYRGYYGPKTHGVTYYYWGQGTQVTVSS"
  Property label: "polyreactivity (PSR sort gate)"
  Value reported: "low polyreactivity"
- Biopolymer sequence: "QVQLLESGGGLVQAGGSLRLSCAASGRIFDPYAMGWYRQAPGKERELVAAITGSGDGTYYADTVKGRYTISRYNAKNTVYLQMNRLKPEDTAVYYCAAVGRDRFVIHDYWGQGTQVTVSS"
  Property label: "polyreactivity (PSR sort gate)"
  Value reported: "low polyreactivity"
- Biopolymer sequence: "QDQLVESGGGLVQAGGSLRLSCAASGITSNPYDMGWYRQAAGKERELVAVITSGGSTSYADSVKGRFTISRDNAKNTVYLQLISLKREDTAVYYCNSVYAGWRGGNYWGQGTQVTVSS"
  Property label: "polyreactivity (PSR sort gate)"
  Value reported: "low polyreactivity"

Hello, I would appreciate it if you could give polyreactivity (PSR sort gate) for each entry below.
1. QVQLVESGGGLVQAGGSLRLSCAASGRIFRYYAMGWYRQAPGKERELVAAISTAGSTYYADSVMGRFTISRDNAKNTVYLQMNSLKPEDTAVYFCAARTYRSVYGPEYGYWGQGTQVTVSS
2. QVQLVESGGGLVQAGGSLRLSCAASGRIFDKYTMGWYRQAPGKERELVATMTRGGVSTYYADSVKGRFTISRDNAKNTVYLQMNSLKPEDTAVYYCNAVWRLRVRYGYWGQGTHVTVSS
3. QDQHVESVGGLVQAGGSLRLSCAASGRTFAWNAMGWYRQAPGKERELVAVITSGGSTNYADSVKGRFTISRDNAKNTVYLQMKSLKPEDTALYYCAAGHSWVYGYDYWGQGTQVTVSS
4. QVQLVESGGGLVQAGGSLRLSCAASGSTFINYAMGWYRQAPGKERELVAVITSDDGSTYYADSVKGRFTISRDNAKNTVYLQMNSLKPEDTAVYYCAADYYDQRYRPGPWYDYWGQGTQVTVSS
5. QVQLVESGAGIVQAGGSLRLSCAASGSTFGINAMGWYRQAPGKEREFVASISWSTGTTYYADSVKGRFTISRDNAKNTVYLQRNSLKPEDTAVYYCAADSSRFYGRPRYYYWGQGTQVTVSS
6. QVQLVESGGGLVQAGGSLRLSCAASGSTFERYVMGWYRQRQGKKWSWLPVLNHNGGSTYYADSVKGRFTISRDNAKNSVYLQMNSRKPEYTAVYYCAKDGLNESQFPGNLRDYWGQGTQVNVSS
7. QVQLVESGGGLVQAGGSLRLSCAASGRTFGWTVMGWYRPAPGKDRELVAAISGSGGSTYYADSVKGRFTISRDNAKNTVYLQMNSLKPEDTAVYYCAALYGPAREYDYWGQGTQVTVSS
8. QVQLVESGGGLVQAGGSLRLSCAASGFIFTAYAMGWYRQAPGKERELVAGIRSGSATYYADSVKGRFTISRDNAKNTVYLQMNILKPEDTAVYYCNAEKYNFIYAYEYWGQGTQVTVSS

**Result**
1: high polyreactivity; 2: high polyreactivity; 3: low polyreactivity; 4: low polyreactivity; 5: high polyreactivity; 6: low polyreactivity; 7: low polyreactivity; 8: low polyreactivity

Hello, I would appreciate it if you could give polyreactivity (PSR sort gate) for each entry below.
1. QVQLHESGGGLVQAGGGLRLSCAASGSISSTGFMGWYRQPPGKEREPVAAIAPGTTTYYADSVKGRFTISRDNAKNTVYLQMISLRPEDTAVYYCAVFTDNRVAFLYWGQGTQVTVSS
2. QVQLVESGGGLVQAGGSLRLSCAASGNTLYQYAMGWYRQAPGKERELVAAISGIGDSTYYADSVKGRFTISRDNAKNTVYLQMNSLKPEDTAVYYCAADGEYRYDLEYESWGQGTQVTVSS
3. QVQLVESGGGLVQAGGSLRLSCAASGRTFGVYAMGWYRQAPGKERELVAAISRRAGNTYYADSVKGRFTISRDNAKNTVYLQMNSLKPEDTAVYYCAADFSRQYGYWGQGTQVTVSS
4. QVQLQESGAGLLQAGGCLSCTASGTIFGQGDMGWYRQAPGKERELLATINDGASTYYADSVKGRFTISRDKAKNTVYLKKNSLKPDDTAVDYFAVFTDITNYFGYWGQATQVTVSS
5. QDQLVESGGGLVQAGGSLRLSCAASGITFQRYAMGGYRQAPGKERELVAVINFRGSNTFYADSVKGRFTISRDNAKNSVYLQMNSLIPEDTAVYYCAASYVIDIRGYGYWGQGTQVTVSS
6. QVQLVESAGGLVQAGGSLRLSCAASGFIFRYNTMGWYRQAPGKERELVATINRSGGSTYYADSVKGRFTISRDNAKNTVYLQMNSLKPEDTAVYYCAAVSLQPYYIAGATWDGDYWGQGTQVTVSS
7. QVQLVESGGGLVQAGGSLRLSCAASGRTFVYNAMGWYRQAPGKERQLVAGITNGGSTNYADSVKGRFTISRDNAKNTVYLQMNSLKPEDTAVYYCAADSRVYPYYFGHFGFWGQGTQVTVSS

**Result**
low polyreactivity
low polyreactivity
high polyreactivity
low polyreactivity
low polyreactivity
high polyreactivity
low polyreactivity
